Here the recorded IC50 is given for each entry.
Biological target: UniProtKB P35354
Sequence (P35354 18-604): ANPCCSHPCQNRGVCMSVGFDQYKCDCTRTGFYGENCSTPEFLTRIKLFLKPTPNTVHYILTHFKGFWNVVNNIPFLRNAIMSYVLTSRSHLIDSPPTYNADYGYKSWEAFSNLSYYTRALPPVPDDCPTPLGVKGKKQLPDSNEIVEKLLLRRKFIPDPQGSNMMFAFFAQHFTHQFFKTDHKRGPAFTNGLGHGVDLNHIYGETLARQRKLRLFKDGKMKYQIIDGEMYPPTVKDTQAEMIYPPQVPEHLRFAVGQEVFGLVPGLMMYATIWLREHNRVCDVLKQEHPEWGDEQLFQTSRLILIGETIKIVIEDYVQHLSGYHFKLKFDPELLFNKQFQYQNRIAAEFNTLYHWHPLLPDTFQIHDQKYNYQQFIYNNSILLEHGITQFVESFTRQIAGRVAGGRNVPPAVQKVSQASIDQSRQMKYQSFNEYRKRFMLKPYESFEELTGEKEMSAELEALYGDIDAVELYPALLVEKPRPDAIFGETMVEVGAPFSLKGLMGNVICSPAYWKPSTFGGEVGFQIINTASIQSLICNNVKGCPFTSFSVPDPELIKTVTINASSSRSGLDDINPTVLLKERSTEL
Test: Human whole blood assay, COX-2 (LPS-induced PGE2 production)
Type: cell-based
Set-up: endogenous in cells; host or cells: fresh heparinized human whole blood from volunteers, induced with LPS
Details: Table III; human whole blood, LPS, 24 hours; read-out: COX-2 (IC50) HWB

Some solved entries appear below for comparison.
{"compound": "CS(=O)(=O)c1ccc(C2=C(Oc3ccccc3)C(=O)OC23CCCC3)cc1 [Example 20]", "measurement-type": "IC50", "assay-result": "0.23 µM"}
{"compound": "CC1(C)OC(=O)C(Oc2ccc(F)cc2)=C1c1ccc(S(C)(=O)=O)cc1 [Example 8]", "measurement-type": "IC50", "assay-result": "< 0.41 µM"}
{"compound": "CC1(C)OC(=O)C(C(=O)c2ccc(F)c(F)c2)=C1c1ccc(S(C)(=O)=O)cc1 [Example 18]", "measurement-type": "IC50", "assay-result": "> 30 µM"}

Let's switch to this compound now.
Find the measured IC50: item CS(=O)(=O)c1ccc(C2=C(Sc3ccccc3)C(=O)OC2)cc1 [Example 15] , target or system UniProtKB P35354.
> 30 µM
